For each record, write down the corresponding relative strength of interaction (β-Gal) with Toc132AG against Toc132G, % change.
assayTarget: T1, atToc132 A- plus G-domains bait (Arabidopsis thaliana, UniProt Q9SLF3 1-794)
T1 construct: atToc132, A. thaliana, A- and G-domains, amino acids 1-794; also called Toc132AG; atToc132AG; source: yeast two-hybrid fusion (pBT3-STE, S. cerevisiae NMY51); not shown: STE2 leader (N-terminal 13 amino acids of S. cerevisiae Ste2), N-terminal, kept; Cub-LexA-VP16, C-terminal, kept
T1 sequence (Q9SLF3 1-794): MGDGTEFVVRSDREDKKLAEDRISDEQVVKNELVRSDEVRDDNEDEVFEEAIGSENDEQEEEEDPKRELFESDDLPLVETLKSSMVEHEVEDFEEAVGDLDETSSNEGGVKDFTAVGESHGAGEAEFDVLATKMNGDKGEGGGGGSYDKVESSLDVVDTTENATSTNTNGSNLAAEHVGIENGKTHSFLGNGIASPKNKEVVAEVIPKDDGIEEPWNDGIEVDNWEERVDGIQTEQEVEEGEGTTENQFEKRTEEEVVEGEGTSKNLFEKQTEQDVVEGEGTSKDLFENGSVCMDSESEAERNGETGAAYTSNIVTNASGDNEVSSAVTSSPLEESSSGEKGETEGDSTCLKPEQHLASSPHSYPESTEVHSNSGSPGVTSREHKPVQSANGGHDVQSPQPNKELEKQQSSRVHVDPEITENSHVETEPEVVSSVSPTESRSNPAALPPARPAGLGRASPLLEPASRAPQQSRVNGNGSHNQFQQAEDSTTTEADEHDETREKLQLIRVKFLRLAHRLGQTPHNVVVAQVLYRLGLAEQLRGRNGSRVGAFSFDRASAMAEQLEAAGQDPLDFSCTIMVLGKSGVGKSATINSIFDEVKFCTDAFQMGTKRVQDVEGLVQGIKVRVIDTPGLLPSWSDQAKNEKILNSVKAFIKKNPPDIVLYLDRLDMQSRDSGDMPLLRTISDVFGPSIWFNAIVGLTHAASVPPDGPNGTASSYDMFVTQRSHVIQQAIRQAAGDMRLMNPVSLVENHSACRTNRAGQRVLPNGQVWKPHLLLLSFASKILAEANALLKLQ
methodNotes: two-hybrid; pairwise split-ubiquitin yeast two-hybrid of isolated NubG-preys with Toc159G, Toc132G or Toc132AG bait in NMY51; growth on SD-LWHA (3-AT) and quantitative β-Gal assay, activity relative to a reference bait set to 100%
conditions: partners not purified
Report as: number unit

relative strength of interaction (β-Gal) with Toc132AG against Toc132G, % change lookup needed for Photosystem I light harvesting complex gene 1 (natural protein, Arabidopsis thaliana, UniProt Q01667 1-241, looked up) MASNSLMSCGIAAVYPSLLSSSKSKFVSAGVPLPNAGNVGRIRMAAHWMPGEPRPAYLDGSAPGDFGFDPLGLGEVPANLERYKESELIHCRWAMLAVPGILVPEALGYGNWVKAQEWAALPGGQATYLGNPVPWGTLPTILAIEFLAIAFVEHQRSMEKDPEKKKYPGGAFDPLGYSKDPKKLEELKVKEIKNGRLALLAFVGFCVQQSAYPGTGPLENLATHLADPWHNNIGDIVIPFN , thanks.
-24.5%

Next binder, relative strength of interaction (β-Gal) with Toc132AG against Toc132G, % change to be filled in.
relative strength of interaction (β-Gal) with Toc132AG against Toc132G, % change lookup needed for Ferredoxin-thioredoxin reductase subunit A (natural protein, Arabidopsis thaliana, UniProt Q9SJ89 1-146, looked up) MNLQAVSCSFGFLSSPLGVTPRTSFRRFVIRAKTEPSEKSVEIMRKFSEQYARRSGTYFCVDKGVTSVVIKGLAEHKDSYGAPLCPCRHYDDKAAEVGQGFWNCPCVPMRERKECHCMLFLTPDNDFAGKDQTITSDEIKETTANM , thanks.
-15%
